Origin of measurements: ChEMBL document CHEMBL1137219

Recorded measurements of pKi, one per entry
TARGET UNDER TEST: Carbonic anhydrase 2 (Homo sapiens, UniProt P00918)
FYI, pKi means -log10 of a concentration in mol per litre.

Query: Query the reported pKi for Carbonic anhydrase 2 (Homo sapiens, UniProt P00918); item: "NS(=O)(=O)c1ccc(NC(=S)N[C@@H](Cc2c[nH]c3ccccc23)C(=O)O)cc1"
Reply: 7.96

Query: Query the reported pKi for Carbonic anhydrase 2 (Homo sapiens, UniProt P00918); item: "NC(=O)C[C@H](/N=C(\S)Nc1ccc(S(N)(=O)=O)cc1)C(=O)O"
Reply: 8.22

---

Let's go through some recorded pKi values for Carbonic anhydrase 2 (Homo sapiens) together.
FYI, pKi means -log10 of a concentration in mol per litre.

{"columns": ["SAMPLE SMILES", "pKi"],
 "data": [
  ["CC(C)[C@H](NC(=S)Nc1ccc(S(N)(=O)=O)cc1)C(=O)O", 8.30],
  ["CNC(=O)COC(=O)[C@H](Cc1c[nH]c2ccccc12)NC(=S)Nc1ccc(S(N)(=O)=O)cc1", 7.70],
  ["CNC(=O)COC(=O)[C@@H](/N=C(\\S)Nc1ccc(S(N)(=O)=O)cc1)C(C)C", 8.30]
]}

Query: So what's the measured pKi for this one? "C[C@H](NC(=S)Nc1ccc(S(N)(=O)=O)cc1)C(=O)O"
Reply: 7.92

Query: So what's the measured pKi for this one? "CC[C@H](C)[C@H](/N=C(\S)Nc1ccc(S(N)(=O)=O)cc1)C(=O)OCC(=O)NC"
Reply: 8.30
